compounds and their reported cytotoxicity at 10 µM
assay: Toxicity liver stage against HepG2, at 10uM; assay type: cell-based; parameters: test concentration 10 uM, cell line HepG2-A16-CD81EGFP; conditions: human, HepG2-A16-CD81EGFP cells; read-out: INHIBITION
Number only, in %; omit the unit.

COMPOUND: O=C(CN1CCCC1c1nc(-c2ccccn2)no1)N1CCOCC1 (stereo not drawn)
READOUT VALUE: 6.08
--
COMPOUND: CCCc1nnsc1C(=O)N1CCN(CC(O)C2CC2)CC1 (stereo not drawn)
READOUT VALUE: -7.78
--
COMPOUND: CN1CC(=O)N(C2CCNC2)Cc2c(NC3CCCC3)ncnc21 (stereo not drawn)
READOUT VALUE: 9.46

Which cytotoxicity at 10 µM reading was recorded for the compound O=C(C1CCOC1)N1CC2(CCN(c3ccccc3)C2)C1 (stereo not drawn) ?
9.88
